pKd: recorded values
- Target Under Test: Cys-HLA (Staphylococcus aureus)
pKd: −log10 of the molar value.

The examples below pair each entry with its known result.
Binder	Value
Bm28C09 (VHH) VHH: QVQLVESGGSVVQAGGSLRLSCTASGRNFNSYAMGWFRRPPGEQRDFIAAIIRSTGKTTYADSDSVKGRFTISKDSSGNTVYLQMNNLKPEDTAIYYCAGGDAGPYAFGYDYWGQGTQVTVSS	≥ 11.00
Bm28A12 (VHH) VHH: QVQLVESGGGLVQAGGSLRLSCVVSGRALSSYNLAWFRQSPGKEREWIATIMPSADKAHYPDFLEGRFTISGDNTENTLYLQMNSLKPEDTAIYYCAAREPSYYHALFEYEYNLWGQGTQVTVSS	≥ 11.00
Bm28F09 (VHH) VHH: QVQLVESGGGLVEPGGSLTLSCAASGFTSKNYYIGWFRQAPGKYREGVASIGASDGSLYIADSVKGRFTISSDNAKNTVYLHPRNLKPEDSGVYYCATGRDSWRWVPSAMDYWGKGIQVTVSS	9.82

From here, focus on the item given below.
pKd reading for Ma7B03 (VHH) VHH: QVQLVESGGGLVQPGGSLRLSCAASGFTLSNYYVGWFRQAPGKQREGVSSIGSSDLSIYIADSVKGRFTISRDNAKNTIYLHMNNLKPDDTGVYYCARGTDSWRWVPSAMDLWGKGTQVTVSS : ≥ 11.00
